Where these numbers come from: patent US20260132182A1

- tested_on: T1, human amylin-3 (a) receptor (human, UniProt P30988 25-474; O60896 24-148)
- T1 sequence (looked up) 1: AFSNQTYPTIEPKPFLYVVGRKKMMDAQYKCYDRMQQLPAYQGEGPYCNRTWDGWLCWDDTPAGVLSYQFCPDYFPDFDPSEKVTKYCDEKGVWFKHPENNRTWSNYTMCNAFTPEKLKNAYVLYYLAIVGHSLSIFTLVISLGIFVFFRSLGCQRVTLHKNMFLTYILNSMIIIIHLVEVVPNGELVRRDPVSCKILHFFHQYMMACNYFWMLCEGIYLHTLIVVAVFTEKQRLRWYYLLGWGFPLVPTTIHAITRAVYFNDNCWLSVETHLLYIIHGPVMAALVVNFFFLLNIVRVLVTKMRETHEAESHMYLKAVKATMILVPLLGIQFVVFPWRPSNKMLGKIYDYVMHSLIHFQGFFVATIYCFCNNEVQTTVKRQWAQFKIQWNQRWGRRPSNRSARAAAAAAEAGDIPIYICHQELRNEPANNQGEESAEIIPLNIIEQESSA
- T1 sequence (looked up) 2: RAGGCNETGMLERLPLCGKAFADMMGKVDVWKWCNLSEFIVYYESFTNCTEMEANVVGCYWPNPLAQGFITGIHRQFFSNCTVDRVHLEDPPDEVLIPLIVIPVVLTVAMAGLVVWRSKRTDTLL
- assay_procedure: cell-based or functional assay
Starred links: 1 amine or outer side, 2 acyl side, 3 side chain; linkers in the order of their positions; H or OH if unused. Non-standard residues stand in square brackets, D forms with d. Groups on a side chain read outwards from the residue. *: point of attachment. C20 diacid = O=C(O)CCCCCCCCCCCCCCCCCCC(=O)*; C18 diacid = O=C(O)CCCCCCCCCCCCCCCCC(=O)*; γGlu = O=C(O)[C@H](CCC(=O)[*:2])N[*:1]; εLys = N[C@@H](CCCCN[*:1])C(=O)[*:2]; Trx = NC[C@H]1CC[C@H](C(=O)O)CC1; AEEA = NCCOCCOCC(=O)O; Aib = CC(C)(N)C(=O)O
measure: Human AmyR3 potency [EC50 (pM)]

1. Compound 0116 (peptide) peptide: H[Aib]EGTFTSDVSSYLEEQAARK([AEEA-AEEA-γGlu-C18 diacid])FIAWLVRGRK([AEEA-AEEA-γGlu-C18 diacid])GGEASELSTAALGRLSAELHELATLPRTETGSGSP-NH2: 21.7
2. Compound 0435 (peptide) peptide: HWEGTFTSDVSSYLEEQAAK([εLys-AEEA-AEEA-γGlu-Trx-C20 diacid])EFIEWLVRGRGEASELSTAALGRLSAELHELATLPRTETGSGSP-NH2: 22.3
3. Compound 0129 (peptide) peptide: H[Aib]EGTFTSDVSSYLEEQAARK([AEEA-AEEA-γGlu-C18 diacid])FIEWLVRGRK([AEEA-AEEA-γGlu-C18 diacid])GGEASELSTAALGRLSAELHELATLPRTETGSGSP-NH2: 23.5
4. Compound 0640 (peptide) peptide: H[Aib]EGTFTSDVSK([AEEA-AEEA-γGlu-C18 diacid])YLEEQAAREFIAWLVRGRGGGGGEASELSTAALGRLSAELHELATLPRTETGSGSP-NH2: 6
